I'd appreciate it if you could supply koff values for the items below.
Biological target: T1, Clostridium difficile toxin A (TcdA) (Clostridium difficile strain 10463, UniProt P16154 1-2710)
T1 construct: range 1-2710
T1 sequence (P16154 whole entry): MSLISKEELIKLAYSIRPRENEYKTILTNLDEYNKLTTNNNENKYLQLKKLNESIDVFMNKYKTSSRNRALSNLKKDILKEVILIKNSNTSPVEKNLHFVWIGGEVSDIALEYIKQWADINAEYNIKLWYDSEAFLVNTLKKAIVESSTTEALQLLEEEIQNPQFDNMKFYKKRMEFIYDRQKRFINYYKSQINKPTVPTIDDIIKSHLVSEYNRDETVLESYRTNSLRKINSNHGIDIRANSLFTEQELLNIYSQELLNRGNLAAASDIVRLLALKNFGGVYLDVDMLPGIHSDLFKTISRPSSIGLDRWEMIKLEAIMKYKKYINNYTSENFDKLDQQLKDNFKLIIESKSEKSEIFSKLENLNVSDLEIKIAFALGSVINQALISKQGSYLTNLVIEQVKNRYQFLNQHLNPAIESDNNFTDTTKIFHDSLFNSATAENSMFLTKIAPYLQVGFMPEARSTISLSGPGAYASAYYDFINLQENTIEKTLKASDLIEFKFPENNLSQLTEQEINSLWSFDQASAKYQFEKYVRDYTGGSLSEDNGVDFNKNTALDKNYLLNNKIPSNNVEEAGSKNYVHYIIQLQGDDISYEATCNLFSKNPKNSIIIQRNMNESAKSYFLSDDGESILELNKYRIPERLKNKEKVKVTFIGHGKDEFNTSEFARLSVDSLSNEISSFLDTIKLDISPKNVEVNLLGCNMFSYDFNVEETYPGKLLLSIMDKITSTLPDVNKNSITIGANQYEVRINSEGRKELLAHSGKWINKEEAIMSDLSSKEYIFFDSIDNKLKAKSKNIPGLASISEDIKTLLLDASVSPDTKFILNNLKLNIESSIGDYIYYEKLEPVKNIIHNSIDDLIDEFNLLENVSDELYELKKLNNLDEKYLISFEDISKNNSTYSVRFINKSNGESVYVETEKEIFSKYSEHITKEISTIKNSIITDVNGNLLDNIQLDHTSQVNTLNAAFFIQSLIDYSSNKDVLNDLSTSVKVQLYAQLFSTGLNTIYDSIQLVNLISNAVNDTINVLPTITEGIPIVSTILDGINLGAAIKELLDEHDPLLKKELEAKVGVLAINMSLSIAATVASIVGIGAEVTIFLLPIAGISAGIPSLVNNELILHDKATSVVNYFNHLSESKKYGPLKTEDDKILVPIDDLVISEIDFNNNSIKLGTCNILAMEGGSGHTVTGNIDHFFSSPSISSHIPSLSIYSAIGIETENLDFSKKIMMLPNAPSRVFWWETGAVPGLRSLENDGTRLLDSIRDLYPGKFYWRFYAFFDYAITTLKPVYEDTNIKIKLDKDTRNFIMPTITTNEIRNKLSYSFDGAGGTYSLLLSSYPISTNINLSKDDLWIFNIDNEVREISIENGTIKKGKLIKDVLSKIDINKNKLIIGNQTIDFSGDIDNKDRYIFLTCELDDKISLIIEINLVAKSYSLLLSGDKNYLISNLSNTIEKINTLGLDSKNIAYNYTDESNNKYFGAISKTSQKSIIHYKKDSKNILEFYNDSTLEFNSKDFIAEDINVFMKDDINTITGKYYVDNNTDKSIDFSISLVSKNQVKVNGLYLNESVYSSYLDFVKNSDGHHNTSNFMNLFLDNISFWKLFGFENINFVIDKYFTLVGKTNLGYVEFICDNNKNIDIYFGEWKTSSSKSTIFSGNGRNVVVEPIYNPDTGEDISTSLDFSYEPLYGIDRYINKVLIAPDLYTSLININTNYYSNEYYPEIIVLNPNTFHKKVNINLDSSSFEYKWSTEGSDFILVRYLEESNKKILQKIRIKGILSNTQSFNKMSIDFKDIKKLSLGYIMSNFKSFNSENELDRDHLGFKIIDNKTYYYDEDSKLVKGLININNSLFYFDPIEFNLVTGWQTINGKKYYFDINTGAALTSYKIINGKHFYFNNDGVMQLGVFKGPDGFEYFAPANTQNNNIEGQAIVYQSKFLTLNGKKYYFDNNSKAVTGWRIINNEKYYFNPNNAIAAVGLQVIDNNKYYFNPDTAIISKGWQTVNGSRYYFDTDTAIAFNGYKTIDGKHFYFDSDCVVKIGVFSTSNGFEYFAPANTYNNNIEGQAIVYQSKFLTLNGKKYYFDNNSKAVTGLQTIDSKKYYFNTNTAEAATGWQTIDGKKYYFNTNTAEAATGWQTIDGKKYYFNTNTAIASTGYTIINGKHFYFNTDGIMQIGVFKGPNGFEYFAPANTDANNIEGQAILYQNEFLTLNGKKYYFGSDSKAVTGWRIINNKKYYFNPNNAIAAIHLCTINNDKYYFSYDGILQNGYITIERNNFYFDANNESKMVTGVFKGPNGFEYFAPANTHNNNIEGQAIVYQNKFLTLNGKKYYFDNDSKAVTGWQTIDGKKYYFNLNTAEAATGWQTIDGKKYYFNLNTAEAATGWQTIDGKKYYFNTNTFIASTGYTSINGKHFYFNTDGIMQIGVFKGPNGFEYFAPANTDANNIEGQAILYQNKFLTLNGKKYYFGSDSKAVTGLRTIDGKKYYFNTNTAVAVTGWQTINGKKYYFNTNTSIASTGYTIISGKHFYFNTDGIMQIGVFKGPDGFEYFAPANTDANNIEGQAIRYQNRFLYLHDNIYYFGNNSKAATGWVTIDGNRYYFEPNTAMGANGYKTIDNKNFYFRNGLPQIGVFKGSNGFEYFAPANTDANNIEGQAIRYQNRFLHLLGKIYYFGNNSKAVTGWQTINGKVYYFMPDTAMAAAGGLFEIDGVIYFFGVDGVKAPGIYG
Experiment: SPR, TcdA immobilized; same value as in Table 1
Please give the number followed by its unit.

Identify koff associated with the binder A19.2 (VHH, also called anti-TcdA VHH A19.2) VHH: QVKLEESGGGLVQPGGSLRLSCAASGRTLSSYIVAWFRQAPGKEREFVAGISRRGGNSAYVESVKGRFTISRDNAKNTVYLQMNSLKPEDTAVYYCAADGSVAGWGRRSVSVSSYDYWGQGTQVTVSS
0.0039 s⁻¹

Respond only with koff recorded for A5.1 (VHH, also called anti-TcdA VHH A5.1) VHH: QVKLEESGGGLVQAGGSLRLSCAASGRTFSMYRMGWFRQAPGKEREFVGVITRNGSSTYYADSVKGRFTISRDNAKNTVYLQMNSLKPEDTALYYCAATSGSSYLDAAHVYDYWGQGTQVTVSS
0.005 s⁻¹

Supply reported koff belonging to this binder: A24.1 (VHH, also called anti-TcdA VHH A24.1) VHH: QVQLVESGGGLVQAGGSLRLSCAASIRSFSNRNMGWFRQPPGKEREFVAGISWGGGSTRYADSVKGRFTISRDNAKKTVYLQMNSLKPEDTAVYYCAAEFGHNIATSSDEYDYWGQGTQVTVSS
0.016 s⁻¹
